- target-or-system: RARa:RXRa (Homo sapiens, UniProt P10276;P19793 full;full)
- Sequence (P10276 whole entry, chain 1 of 2): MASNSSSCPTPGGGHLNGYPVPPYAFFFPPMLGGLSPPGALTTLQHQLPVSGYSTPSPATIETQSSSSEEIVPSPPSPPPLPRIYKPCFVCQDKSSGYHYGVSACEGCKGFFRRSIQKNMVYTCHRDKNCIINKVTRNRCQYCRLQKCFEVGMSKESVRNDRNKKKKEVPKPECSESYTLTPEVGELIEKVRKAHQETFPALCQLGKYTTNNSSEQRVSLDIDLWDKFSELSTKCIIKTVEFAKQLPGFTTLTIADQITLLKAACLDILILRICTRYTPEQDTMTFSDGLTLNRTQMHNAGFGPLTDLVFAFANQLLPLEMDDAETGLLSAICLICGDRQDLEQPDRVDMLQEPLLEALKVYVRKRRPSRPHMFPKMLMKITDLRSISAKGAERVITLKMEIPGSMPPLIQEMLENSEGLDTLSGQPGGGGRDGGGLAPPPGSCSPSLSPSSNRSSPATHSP
- Sequence (P19793 whole entry, chain 2 of 2): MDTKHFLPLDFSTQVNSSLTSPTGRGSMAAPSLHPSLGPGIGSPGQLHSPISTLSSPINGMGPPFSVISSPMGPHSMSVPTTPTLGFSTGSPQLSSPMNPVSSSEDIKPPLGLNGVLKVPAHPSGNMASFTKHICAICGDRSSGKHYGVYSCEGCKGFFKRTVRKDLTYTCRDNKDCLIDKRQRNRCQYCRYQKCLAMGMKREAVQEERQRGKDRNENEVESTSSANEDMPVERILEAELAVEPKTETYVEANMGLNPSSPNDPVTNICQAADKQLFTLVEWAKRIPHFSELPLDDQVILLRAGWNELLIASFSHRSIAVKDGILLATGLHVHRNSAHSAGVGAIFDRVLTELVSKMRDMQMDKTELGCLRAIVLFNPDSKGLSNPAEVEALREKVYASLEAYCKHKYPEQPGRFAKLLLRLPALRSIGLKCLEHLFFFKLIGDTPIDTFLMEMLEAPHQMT
- protocol-description: no ligand; PBM; 270 nM : 90 nM RXRa; PBS pH 7.4, 2% milk, 0.02% Triton X-100, 1 mM DTT, BSA, 0.4 mg/ml salmon testes DNA
- cond: tags: His kept;His cleaved; copies: 1;1; label: surface-attached array probe
value-kind: binding signal

Ask: I would be grateful if you could share the reported binding signal for NRC3_wobSeed82_DR3_G20T_o1 (dsDNA) DNA 1: GCATCGAAAGGTCGACGAGTTGAGTATACACCGTTTGCGATTGACAGCGTAGAATGAAGG DNA 2: CCTTCATTCTACGCTGTCAATCGCAAACGGTGTATACTCAACTCGTCGACCTTTCGATGC .
Result: 3 PBM z-score against 500 random probes
